Data origin: paper PMC9856044

Experiment: Solubility and aggregation (UV/Vis characterization)
Format: physicochemical
Details: sodium cacodylate buffer, I = 0.05 mol dm^−3, pH = 7.0; UV/Vis
Readout label: Aggregation in aqueous buffer

The cases that follow already have their Aggregation in aqueous buffer on record.
Task: Aggregation in aqueous buffer lookup needed for `C[n+]1c(/C=C2\Sc3ccccc3N2CCCS)[se]c2ccccc21` , thanks.
Result: significantly aggregate

Task: Aggregation in aqueous buffer lookup needed for `CN1/C(=C/c2[se]c3ccccc3[n+]2C)Sc2ccccc21` , thanks.
Result: do not form aggregates

Task: Aggregation in aqueous buffer lookup needed for `CN1/C(=C/c2[se]c3ccccc3[n+]2C)Sc2cc(Cl)ccc21` , thanks.
Result: do not form aggregates

Task: Aggregation in aqueous buffer lookup needed for `C[n+]1c(/C=C2\Sc3ccccc3N2CCS)[se]c2ccccc21` , thanks.
Result: significantly aggregate

Read the next record carefully.
Task: Aggregation in aqueous buffer lookup needed for `C[n+]1c(C=C2Sc3ccccc3N2CCCS(=O)(=O)[O-])[se]c2ccccc21` , thanks.
Result: do not form aggregates
